// provenance: patent US7465719B2

System: HeLa cells
Assay Comment: Secondary assay: cell proliferation WST-1, HeLa
Format: cell-based
Measurement Setup: Homo sapiens, HeLa, 48 h, read-out: Cell Proliferation Inhibition WST-1 (IC50 unless otherwise specified) HeLa

| Molecule | Measurement Unit | IC50 |
| --- | --- | --- |
| CC(/C=C/C(=O)NO)=C\[C@@H](C)C(=O)c1ccc(N(C)C)cc1 [TSA, Trichostatin A, reference compound] | nM | 350 |

* * *

Attribute Measured: melting point

| Compound Structure String | Result |
| --- | --- |
| O=C(NO)c1ccc(OC(=O)C2(c3ccc(OC(=O)c4ccccc4)cc3)CCCCC2)cc1 | 114 to 115 °C |
| O=C(NO)c1ccc(OC(=O)C2(c3c(F)cccc3Cl)CCCCC2)cc1 | 101 to 102 °C |
| CC(C)(C)C(=O)Oc1ccc(C2(C(=O)Oc3ccc(C(=O)NO)cc3)CCCCC2)cc1 | 124 to 125 °C |
| O=C(NO)c1ccc(OC(=O)C2(c3ccc(F)cc3)CCCCC2)cc1 | 150 to 151 °C |
| O=C(NO)c1ccc(OC(=O)C2(c3cccc(F)c3)CCCCC2)cc1 | 150 to 151 °C |
| CC(=O)Oc1ccc(C2(C(=O)Oc3ccc(C(=O)NO)cc3)CCCCC2)cc1 | 69 °C |
| COc1ccc(C2(C(=O)Oc3ccc(C(=O)NO)cc3)CCCCC2)cc1 | 127 to 129 °C |
